In this section we review reported Average A450 nm values for a set of binders.
# system-name: T1, Human c-Met-Flis-Fc ECD (human)
# T1 construct: also called human c-Met extracellular domain (ECD)-Fc-Flis fusion; Human cMet-ECD-Fc-Flis
# T1 sequence (chain, as listed by the source limits assumed): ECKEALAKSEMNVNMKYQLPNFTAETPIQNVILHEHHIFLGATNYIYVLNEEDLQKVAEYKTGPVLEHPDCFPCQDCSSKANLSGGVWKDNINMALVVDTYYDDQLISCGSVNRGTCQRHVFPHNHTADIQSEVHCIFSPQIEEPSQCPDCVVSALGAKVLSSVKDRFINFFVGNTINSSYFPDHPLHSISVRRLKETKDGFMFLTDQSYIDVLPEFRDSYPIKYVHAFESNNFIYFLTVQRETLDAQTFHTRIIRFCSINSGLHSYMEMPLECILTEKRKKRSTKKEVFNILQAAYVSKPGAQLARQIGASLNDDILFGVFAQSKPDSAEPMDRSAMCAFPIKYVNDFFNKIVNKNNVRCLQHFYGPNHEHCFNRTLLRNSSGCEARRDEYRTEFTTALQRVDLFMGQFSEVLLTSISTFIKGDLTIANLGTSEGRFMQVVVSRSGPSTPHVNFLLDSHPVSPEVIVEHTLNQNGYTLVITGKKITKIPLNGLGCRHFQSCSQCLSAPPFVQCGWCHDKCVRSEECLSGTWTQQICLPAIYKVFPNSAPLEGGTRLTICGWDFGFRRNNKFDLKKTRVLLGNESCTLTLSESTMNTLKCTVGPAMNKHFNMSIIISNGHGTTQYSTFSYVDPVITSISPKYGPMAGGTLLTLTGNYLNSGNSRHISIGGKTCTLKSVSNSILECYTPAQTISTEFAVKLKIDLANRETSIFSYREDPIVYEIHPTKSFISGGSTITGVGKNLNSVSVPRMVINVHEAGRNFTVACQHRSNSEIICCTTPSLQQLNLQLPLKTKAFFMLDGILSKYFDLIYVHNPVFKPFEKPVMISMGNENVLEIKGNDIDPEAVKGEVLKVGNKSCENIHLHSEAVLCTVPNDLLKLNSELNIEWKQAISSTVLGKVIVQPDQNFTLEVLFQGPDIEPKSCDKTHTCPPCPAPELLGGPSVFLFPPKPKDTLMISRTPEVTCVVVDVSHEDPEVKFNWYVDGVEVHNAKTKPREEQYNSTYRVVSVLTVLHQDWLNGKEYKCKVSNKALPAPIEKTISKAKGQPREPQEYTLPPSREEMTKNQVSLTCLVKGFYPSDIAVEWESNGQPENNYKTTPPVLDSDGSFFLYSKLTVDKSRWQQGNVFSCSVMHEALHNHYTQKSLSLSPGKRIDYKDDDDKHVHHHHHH
# assay-protocol: ELISA, coated ECD-Fc, antibody 0.357 ng/mL
# Description: Wells of 96-well EIA/RIA high binding plates (Costar, #2592) are coated with 100 μL of 1 μg/mL human c-Met extracellular domain (ECD)-Fc-Flis fusion (SEQ ID NO:72), RON-ECD-Fc (R&D Systems, #1947-MS), or PlexinA2-ECD-Fc (Abnova, Taipei, Taiwan #H00005362-P01) in coating buffer (BioFX Labs, # COAT-1000-01) overnight at 4° C. […] After the plates are washed, 100 μL/well of substrate solution (BioFx, #TMBW-1000-01) are added and the plates are incubated for 10 min. at room temperature. […]
Report the figure in A450 nm without appending any unit label.

{"binder": "D11-8B8 (antibody, human IgG2, kappa, V domains shown, Human engineered IgG2, kappa; expressed in HEK293 EBNA cells; also called Mab D11-8B8) VH: QVQLVQSGAEVKKPGSSVKVSCKASGYTFTSRYIHWVRQAPGQGLEWMGWIYPVTGDTYYIEKFKGRVTITADKSTSTAYMELSSLRSEDTAVYYCARGYGAFFYWGQGTLVTVSS VL: EIVLTQSPGTLSLSPGERATLSCSVSSSISSTNLHWYQQKPGQAPRLLIYGTSYLASGIPDRFSGSGSGTDFTLTISRLEPEDFAVYYCQQWSSYPYSFGQGTKLEIKR", "quantitative-readout": 1.31}
{"binder": "C8-co-16 (antibody, human IgG2, kappa, V domains shown, Called IgG4, kappa) VH: QVQLVQSGAEVKKPGASVKVSCKASGYTFTDYYMHWVRQAPGQGLEWMGRVNPYRGSTTYNQKFEGRVTMTTDTSTSTAYMELRSLRSDDTAVYYCARANILDYWGQGTTVTVSS VL: DIQMTQSPSSLSASVGDRVTITCSVSSSVRSIYLHWYQQKPGKAPKLLIYSTSNLASGVPSRFSGSGSGTDFTLTISSLQPEDFATYYCQVYRGYPLTFGGGTKVEIKR", "quantitative-readout": 0.907}

Please find the next binder below.
Sample C8-H241 (antibody, human IgG2, kappa, V domains shown, Called IgG4, kappa; also called Mab C8-H241) VH: QVQLVQSGAEVKKPGASVKVSCKASGYTFTDYYMHWVRQAPGQGLEWMGRVNPNRRGTTYNQKFEGRVTMTTDTSTSTAYMELRSLRSDDTAVYYCARANWLDYWGQGTTVTVSS VL: DIQMTQSPSSLSASVGDRVTITCSVSSSVSSIYLHWYQQKPGKAPKLLIYSTSNLASGVPSRFSGSGSGTDFTLTISSLQPEDFATYYCQVYSGYPLTFGGGTKVEIKR ; Average A450 nm observed: 0.902
